Reference source for all entries: patent US20170355775A1

Target: T1, canine CD20 ECD2 peptide (canine)
T1 peptide: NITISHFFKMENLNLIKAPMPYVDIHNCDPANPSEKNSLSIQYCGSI
Experiment: ELISA on canine CD20 ECD2 peptide

>  <binder>
1E4-cIgGB with N33 to P substitution in VL (antibody, V domains shown, Whole antibody (heavy plus light chains) made 'using the above procedures') VH: EVQLVESGGGLVKPGGSLKLSCAASGFTFSDYGMLWVRQAPEKGLEWIAYISSGSSTIYYADRVKGRFTISRDNAKNTLFLQMTSLRSEDTAMYYCSTGTFAYWGQGTPVTVSS VL: DVVMTQNPLSLPVSLGDQASISCRSSQSLIYNPGNTYLHWYRQKPGQSPKLLIYKVSNRFSGVPDRFSGSGSGTDFTLKISRVEAEDLGVYFCSQSTHVPFTFGSGTKLEIKR

>  <binding result>
binds

$$$$
>  <binder>
1E4-cIgGB with N33 to V substitution in VL (antibody, V domains shown, Whole antibody (heavy plus light chains) made 'using the above procedures') VH: EVQLVESGGGLVKPGGSLKLSCAASGFTFSDYGMLWVRQAPEKGLEWIAYISSGSSTIYYADRVKGRFTISRDNAKNTLFLQMTSLRSEDTAMYYCSTGTFAYWGQGTPVTVSS VL: DVVMTQNPLSLPVSLGDQASISCRSSQSLIYNVGNTYLHWYRQKPGQSPKLLIYKVSNRFSGVPDRFSGSGSGTDFTLKISRVEAEDLGVYFCSQSTHVPFTFGSGTKLEIKR

>  <binding result>
binds

$$$$
>  <binder>
1E4-cIgGB with G34 to F substitution in VL (antibody, V domains shown, Whole antibody (heavy plus light chains) made 'using the above procedures') VH: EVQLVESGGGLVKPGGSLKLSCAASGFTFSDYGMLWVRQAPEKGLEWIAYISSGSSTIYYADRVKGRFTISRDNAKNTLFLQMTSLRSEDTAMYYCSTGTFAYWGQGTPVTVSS VL: DVVMTQNPLSLPVSLGDQASISCRSSQSLIYNNFNTYLHWYRQKPGQSPKLLIYKVSNRFSGVPDRFSGSGSGTDFTLKISRVEAEDLGVYFCSQSTHVPFTFGSGTKLEIKR

>  <binding result>
binds

$$$$
